# experimental.system: Glutathione peroxidase 1 (Homo sapiens) (UniProt P07203)
# Sequence (P07203 whole entry, looked up): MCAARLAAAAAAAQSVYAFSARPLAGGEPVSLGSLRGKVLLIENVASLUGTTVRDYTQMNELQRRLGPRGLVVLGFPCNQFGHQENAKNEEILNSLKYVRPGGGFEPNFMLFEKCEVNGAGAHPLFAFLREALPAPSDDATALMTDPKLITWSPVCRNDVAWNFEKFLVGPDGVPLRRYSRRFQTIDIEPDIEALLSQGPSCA
# measurement.notes: Primary qHTS Assay for Inhibitors of Recombinant Selenoprotein Glutathione Peroxidase 1 (GPX1) (AID 1845191); note: nearly all actives have a fitted effect of over 65% in size
# condition.details: recombinant GPX1, GR-coupled NADPH fluorescence, 15 min; series mostly up to 48.8 µM
Inconclusive results are not listed. Activity calls are given as the source filed them. Calls come from the whole dose curve; as a rule, active = well fitted inhibition curve with a large enough effect; inconclusive = small, poorly fitted or top-dose-only effect; inactive = flat fitted curve, though single readings scatter.
measured.endpoint: outcome

>  <structure.notation>
COC(=O)c1c(C)[nH]c(C)c1C(=O)c1ccccc1Cc1ccccc1

>  <experimental.system>
Glutathione peroxidase 1 (Homo sapiens) (UniProt P07203)

>  <result>
inactive

$$$$
>  <structure.notation>
CN(C)C(N)=NCCC[C@H](N)C(=O)O

>  <experimental.system>
Glutathione peroxidase 1 (Homo sapiens) (UniProt P07203)

>  <result>
inactive

$$$$
>  <structure.notation>
Cc1cc(NC(=O)Nc2ccc3c(ccn3C)c2)sn1

>  <experimental.system>
Glutathione peroxidase 1 (Homo sapiens) (UniProt P07203)

>  <result>
inactive

$$$$
>  <structure.notation>
O=c1[nH]c2ccccc2n1CCCN1CCN(C(c2ccccc2)c2ccccc2)CC1

>  <experimental.system>
Glutathione peroxidase 1 (Homo sapiens) (UniProt P07203)

>  <result>
inactive

$$$$
>  <structure.notation>
O=C(O)c1cc([N+](=O)[O-])ccc1NCCCc1ccccc1

>  <experimental.system>
Glutathione peroxidase 1 (Homo sapiens) (UniProt P07203)

>  <result>
inactive

$$$$
>  <structure.notation>
O=C(CCSCc1ccco1)NNC(=O)N1Cc2ccccc2Oc2ccc(Cl)cc21

>  <experimental.system>
Glutathione peroxidase 1 (Homo sapiens) (UniProt P07203)

>  <result>
inactive

$$$$

* * *

# measurement.notes: qHTS to identify inhibitors of the type 1 interferon - major histocompatibility complex class I in skeletal muscle: primary screen against the NCATS LOPAC collection (AID 1347405);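 note: human myoblasts with HiBiT tag on endogenous HLA-B stimulated by IFN-beta; lytic HiBiT luminescence reporting HLA-B protein level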
# condition.details: iHSKM muscle cells, IFN-b-induced MHC-I HiBiT luminescence, 24 h; series mostly up to 45.9 µM
Results filed as inconclusive are left out. Activity calls are given as the source filed them. Calls come from the whole dose curve; as a rule, active = well fitted inhibition curve with a large enough effect; inconclusive = small, poorly fitted or top-dose-only effect; inactive = flat fitted curve, though single readings scatter.
Outcomes: yes = active, no = inactive

>  <molecule>
CC(=O)/C=C1\C(=O)N(C)c2ccccc21

>  <classification>
yes

$$$$
>  <molecule>
O=C(CCCCCN1CCN(c2ccccc2-c2ccccc2)CC1)NC1CCCc2ccccc21 (stereo not given)

>  <classification>
no

$$$$
>  <molecule>
O=P(O)(O)C(Cl)(Cl)P(=O)(O)O

>  <classification>
no

$$$$
>  <molecule>
Cn1c(=O)c(-c2c(Cl)cccc2Cl)cc2cnc(Nc3ccc(N4CCOCC4)cc3)nc21

>  <classification>
yes

$$$$
>  <molecule>
CN1CC(=O)N/C1=N/C(=O)Nc1cccc(Cl)c1

>  <classification>
no

$$$$
>  <molecule>
Cc1cc(NC2CCCCC2)nc(-n2nc(C)cc2C)n1

>  <classification>
no

$$$$
>  <molecule>
NCCCCCCCCCCN

>  <classification>
no

$$$$
>  <molecule>
C=CC(N)CCC(=O)O (stereo not given)

>  <classification>
no

$$$$
>  <molecule>
CSc1ccccc1N1CCN(CCCCCC(=O)NC2CCCc3ccccc32)CC1 (stereo not given)

>  <classification>
no

$$$$
>  <molecule>
CSc1nc(N)c2ncn([C@@H]3O[C@H](COP(=O)(O)OP(=O)(O)OP(=O)(O)O)[C@@H](O)[C@H]3O)c2n1

>  <classification>
no

$$$$
>  <molecule>
CCNC(=O)[C@H]1O[C@@H](n2cnc3c(N)nc(NCCc4ccc(CCC(=O)O)cc4)nc32)[C@H](O)C1O (stereo not given in full)

>  <classification>
no

$$$$
>  <molecule>
Cn1cc(C2=C(c3ccc(Cl)cc3Cl)C(=O)NC2=O)c2ccccc21

>  <classification>
no

$$$$
>  <molecule>
Nc1nc(Nc2ccccc2)nc2c1ncn2[C@@H]1O[C@H](CO)[C@@H](O)[C@H]1O

>  <classification>
no

$$$$
>  <molecule>
CC(C)(NS(=O)(=O)c1ccc(Oc2ccc(F)cc2)cc1)C(=O)NO

>  <classification>
no

$$$$
>  <molecule>
Clc1ccc(N2CCN(Cc3c[nH]c4ncccc34)CC2)cc1

>  <classification>
no

$$$$
>  <molecule>
COc1ccc2c(c1)CCC1C2CC[C@@]2(C)C1CC[C@@H]2NCCCCCCN1C(=O)CCC1=O (stereo not given in full)

>  <classification>
no

$$$$
>  <molecule>
CN(C)CCC(c1ccc(Cl)cc1)c1ccccn1 (stereo not given)

>  <classification>
no

$$$$
>  <molecule>
N[C@@H](CC(=O)O)C(=O)O

>  <classification>
no

$$$$
>  <molecule>
N=c1ccn2c(n1)O[C@H]1[C@H](O)[C@@H](CO)O[C@H]12

>  <classification>
no

$$$$
>  <molecule>
Clc1ccc(N2CCN(Cc3cc4ccccn4n3)CC2)cc1

>  <classification>
no

$$$$
>  <molecule>
Nc1ncnc2c1ncn2[C@@H]1O[C@H](COP(=O)(O)OP(=O)(O)OP(=O)(O)OP(=O)(O)OC[C@@H]2O[C@H](n3cnc4c(N)ncnc43)[C@@H](O)[C@H]2O)[C@@H](O)[C@H]1O

>  <classification>
no

$$$$
>  <molecule>
Cn1ncc(S(=O)(=O)Cc2ccccc2)c(Br)c1=O

>  <classification>
no

$$$$
>  <molecule>
Cc1cc(NC(=O)Nc2ccc3c(ccn3C)c2)sn1

>  <classification>
no

$$$$
>  <molecule>
NC(CCCP(=O)(O)O)C(=O)O (stereo not given)

>  <classification>
no

$$$$
>  <molecule>
Oc1ccc(C2CNCc3sccc32)cc1O (stereo not given)

>  <classification>
no

$$$$
>  <molecule>
O=C(CCc1ccncc1)NNC(=O)N1Cc2ccccc2Oc2ccc(Cl)cc21

>  <classification>
no

$$$$
>  <molecule>
Oc1cc(O)cc(/C=C/c2ccc(O)c(O)c2)c1

>  <classification>
no

$$$$
>  <molecule>
O=c1[nH]c2cc([N+](=O)[O-])c([N+](=O)[O-])cc2[nH]c1=O

>  <classification>
no

$$$$
>  <molecule>
NS(=O)(=O)c1ccc(-n2nc(C(F)(F)F)cc2-c2ccc(Cl)cc2)cc1

>  <classification>
no

$$$$
>  <molecule>
CCCCCCCC/C=C\CCCCCCCC(=O)NCCO

>  <classification>
no

$$$$
>  <molecule>
CN1C2CC(OC(=O)[C@H](CO)c3ccccc3)CC1C1OC12 (stereo not given in full)

>  <classification>
no

$$$$
>  <molecule>
S=C(S)OC1CC2CC1C1CCCC21 (stereo not given)

>  <classification>
no

$$$$
>  <molecule>
CCN(CC)c1ncnc2c1ncn2[C@@H]1O[C@H](COP(=O)(O)OP(=O)(O)C(Br)(Br)P(=O)(O)O)[C@@H](O)[C@H]1O

>  <classification>
no

$$$$
>  <molecule>
CCNc1nc2c(ncn2[C@H]2C[C@H](O)[C@@H](CO)O2)c(=O)[nH]1

>  <classification>
no

$$$$
>  <molecule>
OCC1O[C@H]([S-])[C@H](O)[C@@H](O)[C@@H]1O.[Au+] (stereo not given in full)

>  <classification>
yes

$$$$
>  <molecule>
O=C(O)CNC(=O)C(CS)Cc1ccccc1 (stereo not given)

>  <classification>
no

$$$$
>  <molecule>
CC(=O)N[C@H](C(=O)O)C(C)(C)SN=O

>  <classification>
no

$$$$
>  <molecule>
COc1ccc(C(=O)/C(Cc2cc(OC)c(OC)c(OC)c2)=C(\C(=O)O)c2ccc3c(c2)OCO3)cc1

>  <classification>
yes

$$$$
>  <molecule>
O=c1[nH]c2cc(C(F)(F)F)ccc2n1-c1cc(C(F)(F)F)ccc1O

>  <classification>
no

$$$$
>  <molecule>
O=C1/C(=C/c2ccsc2)CC/C1=C\c1cccs1

>  <classification>
no

$$$$
>  <molecule>
COC(=O)c1c(C)[nH]c(C)c1C(=O)c1ccccc1Cc1ccccc1

>  <classification>
no

$$$$
>  <molecule>
O=[N+]([O-])c1ccc(CNc2nc(NCc3cccc(C(F)(F)F)c3)nc3nc[nH]c23)cc1

>  <classification>
no

$$$$
>  <molecule>
NO

>  <classification>
no

$$$$
>  <molecule>
O=C(/C=C/c1ccc(O)c(O)c1)OCCc1ccccc1

>  <classification>
no

$$$$
>  <molecule>
CCCN(CC1CC1)c1nc(C)nc(Nc2c(Cl)cc(Cl)cc2Cl)c1Cl

>  <classification>
no

$$$$
